FYI, the data here is from PubChem BioAssay (Tox21).

assay: qHTS assay to identify small molecule antagonists of the androgen receptor (AR) signaling pathway - cell viability counter screen (AID 743033; also: nearly all actives have a fitted effect of over 45% in size); settings: AR-bla HEK293 viability, CellTiter-Glo luminescence, 16 h; series mostly up to 58.5 µM
Results filed as inconclusive are left out. The source made the active and inactive calls. Calls follow the shape of the dose curve; as a rule, active = well fitted cell-killing curve with a large enough effect in the repeat runs; inconclusive = weak or mixed curves; inactive = no such curve, though single readings can be large or run the other way.
# valid calls are yes for active, no for inactive; nothing else

Reference set (5 entries):
molecule	qualitativeLabel
CCCCCCCC[P+](CCCCCCCC)(CCCCCCCC)CCCCCCCC	yes
Clc1ccc2cc3ccccc3cc2c1	no
Cc1ccc(O)c2ncccc12	yes
CCN(CC)CCCC(C)Nc1c2ccc(Cl)cc2nc2ccc(OC)cc12 (stereo not drawn)	no
Cc1cc(CCN2CCN(c3nsc4ccccc34)CC2)cc2c1NC(=O)CC2(C)C	yes

input: What outcome does the record of this test show for `CCCCCCCC[N+](CCCCCCCC)(CCCCCCCC)CCCCCCCC` ?
output: yes

---

Experiment: qHTS assay to identify small molecule agonists of the sonic hedgehog signaling (Shh) pathway - cell viability counter screen (AID 1259366); also: nearly all actives have a fitted effect of over 50% in size
Settings: NIH/3T3 Gli1-Luc viability, CellTiter-Fluor, 24 h; series mostly up to 92.4 µM
Text: National Center for Advancing Translational Sciences [NCATS] NIH Chemical Genomics Center [NCGC] U.S. Environmental Protection Agency [EPA] National Institutes of Environmental Health Sciences [NIEHS] National Toxicology Program [NTP] U.S. Food and Drug Administration [FDA] The sonic hedgehog (Shh) pathway is essential for normal embryonic development. Dysregulation of the Shh pathway can cause severe developmental defects in organs. […]
Inconclusive results are not listed. Calls of active or inactive are those of the source. Calls follow the shape of the dose curve; as a rule, active = well fitted cell-killing curve with a large enough effect in the repeat runs; inconclusive = weak or mixed curves, or effect the other way; inactive = flat fitted curve, though single readings scatter.
# valid calls are label 1 (active), label 0 (inactive); nothing else

Reference set (4 entries):
compound	qualitativeLabel
COc1cccc(N)c1	label 0
CCCCC(CC)COC(=O)c1ccccc1C(=O)O (configuration not stated)	label 0
Fc1ccc([C@@H]2CCNC[C@H]2COc2ccc3c(c2)OCO3)cc1	label 0
CC(C)C(C)(C)C(C)(C)C(C)(C)S	label 0

input: What outcome does the record of this test show for `COc1cc(-c2ccc(N=C=O)c(OC)c2)ccc1N=C=O` ?
output: label 0

input: What outcome does the record of this test show for `C[C@H](CCC(=O)O)[C@H]1CC[C@H]2[C@@H]3CC[C@@H]4C[C@H](O)CC[C@]4(C)[C@H]3CC[C@]12C` ?
output: label 0

input: What outcome does the record of this test show for `CCCC(c1cc(C(C)(C)C)c(O)cc1C)c1cc(C(C)(C)C)c(O)cc1C` ?
output: label 1

input: What outcome does the record of this test show for `Cn1cc(C(=O)[C@@H]2CCc3nc[nH]c3C2)c2ccccc21` ?
output: label 0

input: What outcome does the record of this test show for `COc1c(C)c2c(c(O)c1C/C=C(\C)CCC(=O)O)C(=O)OC2` ?
output: label 0

---

Assay: qHTS assay to identify small molecule agonists of the peroxisome proliferator-activated receptor delta (PPARd) signaling pathway - cell viability counter screen (AID 743211); also: nearly all actives have a fitted effect of over 55% in size
Conditions: PPARd-bla HEK293H viability, CellTiter-Glo luminescence, 17 h; series mostly up to 62.6 µM
Source text: U.S. Tox21 Program National Center for Advancing Translational Sciences [NCATS] NIH Chemical Genomics Center [NCGC] U.S. Environmental Protection Agency [EPA] National Institutes of Environmental Health Sciences [NIEHS] National Toxicology Program [NTP] U.S. Food and Drug Administration [FDA] […]
Inconclusive results are not listed. Active and inactive are the calls of the source. Calls follow the shape of the dose curve; as a rule, active = well fitted cell-killing curve with a large enough effect in the repeat runs; inconclusive = weak or mixed curves; inactive = no such curve, though single readings can be large or run the other way.
# valid calls are active, inactive; nothing else

Reference set (5 entries):
molecule	qualitativeLabel
CCCCCCCC/C=C\CCCCCCCCOCCO	active
CC(C)n1nc(-c2cc3cc(O)ccc3[nH]2)c2c(N)ncnc21	active
CC(=O)OCC(C)OC(C)=O (stereo unspecified)	inactive
NC(=O)N1C(=O)C(C(=O)c2cc(Cl)cs2)c2cc(F)c(Cl)cc21 (stereo unspecified)	active
CCOC(=O)/C=C(C)/C=C/C=C(C)/C=C/c1c(C)cc(OC)c(C)c1C	inactive

// next entry
input: What outcome does the record of this test show for `O=C(OCC(COC(=O)c1ccccc1)(COC(=O)c1ccccc1)COC(=O)c1ccccc1)c1ccccc1` ?
output: inactive
